# System: fMet-Leu-Phe receptor (Homo sapiens) (UniProt P21462)
# Sequence (P21462 whole entry, looked up): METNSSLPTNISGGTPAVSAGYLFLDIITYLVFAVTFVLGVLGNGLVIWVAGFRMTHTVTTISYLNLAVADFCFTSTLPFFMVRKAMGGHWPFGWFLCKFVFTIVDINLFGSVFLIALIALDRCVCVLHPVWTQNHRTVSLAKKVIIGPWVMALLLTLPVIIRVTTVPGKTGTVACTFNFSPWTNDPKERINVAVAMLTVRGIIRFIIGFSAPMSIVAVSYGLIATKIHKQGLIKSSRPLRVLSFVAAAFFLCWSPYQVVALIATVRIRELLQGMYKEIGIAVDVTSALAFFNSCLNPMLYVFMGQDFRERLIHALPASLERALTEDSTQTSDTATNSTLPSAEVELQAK
# Protocol description: human FPR ligands by binding competition, primary screen, cell-based, FPRL1 counter-screen, flow cytometry (AID 440);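 note: 0% = buffer wells and 100% = receptor blocker peptide wells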
# Stated conditions: FPR-expressing cells, fluorescent ligand binding, active compounds read high, concentration not given here
In all, about 24,000 compounds went through this assay and about 180 (0.75%) were called active. This is one part of a sample in which actives are shown more often than they occur.
Readout label: inhibition (%)
Report only the number, with the unit % understood.

Some molecules with recorded inhibition:
CCOc1ccccc1C(=O)NCCCn1ccnc1; -3.4
COc1cc(C2C(C(=O)c3ccc(C)o3)=C(O)C(=O)N2Cc2cccnc2)ccc1O (stereo not given); 40.6

Reported inhibition for CCCOc1ccc(C2c3c(oc4cc(C)c(C)cc4c3=O)C(=O)N2CCCN2CCOCC2)cc1 (stereo not given) was 5.8

Reported inhibition for CCCOc1ccc(C2C(C(=O)c3ccc(C)o3)=C(O)C(=O)N2CCCn2ccnc2)cc1 (stereo not given) was 52.8

Reported inhibition for COc1cc(C2C(C(=O)c3sc(C)nc3C)=C(O)C(=O)N2CCN(C)C)cc(OC)c1OC (stereo not given) was 3.4

Reported inhibition for `OCc1n[nH]c(CO)n1` was 1.3

Reported inhibition for `CCOc1ccc(N(CC(=O)NCc2ccc(OC)cc2)S(=O)(=O)c2c(C)noc2C)cc1` was -3.8

Reported inhibition for `CCCCCCn1c(CN2CCCCC2)nc2c1c(=O)n(C)c(=O)n2C` was -5.5

Reported inhibition for COc1cc(C2C(C(=O)c3ccc(C)o3)=C(O)C(=O)N2CCc2ccccc2)ccc1O (stereo not given) was 69.9

Reported inhibition for Cn1cccc1C1(C(F)(F)F)NCCNC1=O (stereo not given) was 1.7

* * *

Some compounds, each annotated with its measured inhibition.
# System: fMet-Leu-Phe receptor (Homo sapiens)
# Protocol description: human FPR ligands by binding competition, primary screen, cell-based, FPRL1 counter-screen, flow cytometry (AID 440);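 note: 0% = buffer wells and 100% = receptor blocker peptide wells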
# Stated conditions: FPR-expressing cells, fluorescent ligand binding, active compounds read high, concentration not given here
About 180 (0.75%) of roughly 24,000 compounds were called active. Many of the other results were omitted from the sample, so actives are more common in it than they were.
Report only the number, with the unit % understood.

CCOC(=O)Cn1c2c(c(-c3ccccc3OC)cc1=O)CCCC2; 10.1
O=C(Nc1c2c(nn1-c1ccc(F)cc1)CS(=O)C2)C12CC3CC(CC(C3)C1)C2 (stereo not given); -5.4
O=C(O)[C@@H]1CCCN1c1ncnc2sc3c(c12)CCC3; 8.1

Reported inhibition for COc1ccc(C2CC(c3ccc(Cl)cc3Cl)Nc3nc(N)nn32)cc1OC (stereo not given) was 6.7

Reported inhibition for `CCOc1ccc(OCC)c(NC(=O)CN(C)S(=O)(=O)c2cccc3nsnc23)c1` was -0.8

Reported inhibition for CCOc1cc2c(cc1OCC)C(C(=O)O)C(c1ccc(OC)c(O)c1)N(C)C2=O (stereo not given) was 12.3

Reported inhibition for `CCOC(=O)c1cc2cc(-c3c(C(=O)OCC)oc4cc(O)cc(O)c4c3=O)ccc2o1` was -2.3

Reported inhibition for `Cc1nc(C)c(C(=O)Nc2ccc(C)c(F)c2)o1` was -4.6

Reported inhibition for `COc1cccc(-n2cc(C(=O)O)c3ccccc3c2=O)c1` was -2.1

Reported inhibition for `CCOC(=O)c1nnn(-c2nc(OC)nc(N(C)C)n2)c1-c1ccccc1` was -0.2

* * *

# System: fMet-Leu-Phe receptor (Homo sapiens)
# Protocol description: human FPR ligands by binding competition, primary screen, cell-based, FPRL1 counter-screen, flow cytometry (AID 440);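 note: 0% = buffer wells and 100% = receptor blocker peptide wells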
# Stated conditions: FPR-expressing cells, fluorescent ligand binding, active compounds read high, concentration not given here
In all, about 24,000 compounds went through this assay and about 180 (0.75%) were called active. Many of the other results were omitted from the sample, so actives are more common in it than they were.
Readout label: inhibition (%)
Report only the number, with the unit % understood.

Some compounds with recorded inhibition:
CC1(C)C(=O)Nc2ccccc2N1C(=O)COC(=O)Cn1cnc2ccccc2c1=O; -1.5
CSc1sc(C)cc1C1C(C#N)=C(N)N(c2cccnc2)C2=C1C(=O)CCC2 (stereo not given); 4.3
CCC(=O)N1CCN=C1SCc1ccc(F)cc1; 0
O=C(Nc1ccccc1C(=O)N1CCOCC1)C1CCC(=O)N1C1CCCC1 (stereo not given); -0.6

Reported inhibition for O=C(Cn1nc(Cc2cccnc2)c2ccccc2c1=O)NCC1CCCO1 (stereo not given) was 0.4
